These measurements were taken from the supplement of paper PMC10567573.

B1: PTPRD (parent)
chain: PVVSMDLDPQPITDEEEGLIWVVG

- Variants of: B1
- PROTOCOL DETAILS: protein stability index of a GFP-peptide fusion (GPS, HEK-293T) (PSI 1-6); higher = more stable;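 also: lentivirally expressed fusions sorted by FACS into six bins by GFP to DsRed ratio, PSI derived from sequencing read proportions per bin multiplied by bin number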
- DETAILS: c terminus: a fixed tail appended
Listing of entries alongside the reported protein stability index.

# SEQUENCE INPUT, protein stability index
measured = [
    ("PVVSMCLDPQPITDEEEGLIWVVG", 3.6),
    ("PVVSMDLDPQPITDEEEGEIWVVG", 4.54),
    ("PVVSWDLDPQPITDEEEGLIWVVG", 3.51),
    ("PQVSMDLDPQPITDEEEGLIWVVG", 3.94),
    ("PVVSMDLDPQPITDEPEGLIWVVG", 2.79),
    ("PVASMDLDPQPITDEEEGLIWVVG", 3.17),
    ("PVVSMDLDPQPITDEEEPLIWVVG", 3.19),
    ("PFVSMDLDPQPITDEEEGLIWVVG", 3.16),
    ("PVVSMDLIPQPITDEEEGLIWVVG", 2.53),
    ("PVVSMDLDPQPITDEESGLIWVVG", 2.88),
    ("PVVSMDLHPQPITDEEEGLIWVVG", 2.1),
    ("PVHSMDLDPQPITDEEEGLIWVVG", 3.38),
    ("PSVSMDLDPQPITDEEEGLIWVVG", 4.51),
    ("PVVIMDLDPQPITDEEEGLIWVVG", 2.28),
    ("PVVSMDMDPQPITDEEEGLIWVVG", 3.29),
    ("PVVSMDLDPQPITDEYEGLIWVVG", 2.79),
    ("PVVSMDLDPQPITDEEEGLIWKVG", 4.57),
    ("PVVSMDLDPQPITDEEEGLIWCVG", 3.9),
    ("PVVWMDLDPQPITDEEEGLIWVVG", 1.83),
    ("PVVSMRLDPQPITDEEEGLIWVVG", 3.67),
    ("PVVSMDLDPQNITDEEEGLIWVVG", 3.36),
    ("PVVSMDLDPSPITDEEEGLIWVVG", 2.77),
    ("PVVSMDLDPQPITDEEEGLIWVPG", 4.97),
    ("PVVSMDLPPQPITDEEEGLIWVVG", 3.56),
    ("PVVSMDLDPQPIADEEEGLIWVVG", 3.87),
    ("PVVSMDLDPQPITDEEEGLIWFVG", 2.54),
    ("PVVSMDLDPQPITDEEEGLIWVTG", 4.93),
    ("PVVSMDLDPGPITDEEEGLIWVVG", 3.99),
    ("PVVCMDLDPQPITDEEEGLIWVVG", 3.56),
    ("PVVSMDLWPQPITDEEEGLIWVVG", 2.52),
    ("PVVSMDLDPQPITDEEEGLIWVVC", 1.85),
    ("PVVSMDLDPQPYTDEEEGLIWVVG", 2.86),
    ("PVVSMDLDPQPITDEEQGLIWVVG", 4.18),
    ("PVVSMDLDPQKITDEEEGLIWVVG", 3.68),
    ("PVVSMDLDPQPITDSEEGLIWVVG", 2.9),
    ("PVVSMDLDPQPITDEEEGLIWVVF", 1.34),
    ("PVVSMDLDPQPITDEQEGLIWVVG", 3.79),
    ("PVVSMDLDPQIITDEEEGLIWVVG", 2.93),
    ("PVVDMDLDPQPITDEEEGLIWVVG", 3.92),
    ("PVKSMDLDPQPITDEEEGLIWVVG", 3.48),
    ("PVVSYDLDPQPITDEEEGLIWVVG", 3.54),
    ("PVVNMDLDPQPITDEEEGLIWVVG", 4.01),
    ("PVVSMDLDPTPITDEEEGLIWVVG", 3.73),
    ("PVVSMDLDPQPITDEEEGLIWVGG", 5.27),
    ("PVVSMDLDPQPITDEEEGLIHVVG", 5.47),
    ("PVVSMDHDPQPITDEEEGLIWVVG", 3.48),
    ("PVVSMDLDPQPITDEFEGLIWVVG", 1.07),
    ("PVWSMDLDPQPITDEEEGLIWVVG", 4.09),
    ("PVVSMDLDPQFITDEEEGLIWVVG", 3.25),
    ("PVVSMDLDPQPKTDEEEGLIWVVG", 4.84),
    ("PVVSMDLDNQPITDEEEGLIWVVG", 4.12),
    ("PVLSMDLDPQPITDEEEGLIWVVG", 3.74),
    ("PVVSMDCDPQPITDEEEGLIWVVG", 3.54),
    ("PVVSMDLDAQPITDEEEGLIWVVG", 2.88),
    ("PVVSMDLDPQPITDEEEGLIWVAG", 4.67),
    ("PVVSMDLDPQPVTDEEEGLIWVVG", 4.28),
    ("PVVSMDLDPQPITDEEEGLVWVVG", 4.87),
    ("QVVSMDLDPQPITDEEEGLIWVVG", 3.81),
    ("PVVSMDLDPQPITDEEEGLIWYVG", 5.12),
    ("PVVSADLDPQPITDEEEGLIWVVG", 4.97),
    ("PVVSMDLDPQPITDTEEGLIWVVG", 2.33),
    ("PVVSMDLEPQPITDEEEGLIWVVG", 3.92),
    ("PVVSMDADPQPITDEEEGLIWVVG", 4.31),
    ("PVVSMDLDPQPITDEEEGLDWVVG", 4.8),
    ("PVVSMDLDPQPITDEEEELIWVVG", 4.22),
    ("PVVSMDLDPQPMTDEEEGLIWVVG", 3.75),
    ("PVVSDDLDPQPITDEEEGLIWVVG", 4.71),
    ("PVVSMALDPQPITDEEEGLIWVVG", 4.22),
    ("PVVSMDLDPQPITDEWEGLIWVVG", 2.27),
    ("PVVYMDLDPQPITDEEEGLIWVVG", 1.99),
    ("PVVSMDLDPQCITDEEEGLIWVVG", 3.36),
    ("PVVSMKLDPQPITDEEEGLIWVVG", 2.99),
    ("PVVSMDLDPQPITDEDEGLIWVVG", 4.08),
    ("PVVVMDLDPQPITDEEEGLIWVVG", 2.42),
    ("PVVSMDLDPQPGTDEEEGLIWVVG", 4.49),
    ("PVVSMDLDPQPITDEEEGSIWVVG", 4.21),
    ("PVVSMDLDPQPITDEEEGLILVVG", 3.33),
    ("PVVSMDLDPQPITDREEGLIWVVG", 3.57),
    ("PVVSMDLDPQPITMEEEGLIWVVG", 2.36),
    ("PVVSMILDPQPITDEEEGLIWVVG", 2.56),
    ("PVVSMDLDPNPITDEEEGLIWVVG", 3.42),
    ("PVVSMDLDPQPITDEEEGWIWVVG", 3.37),
    ("PVVSMDLDPQPITDEENGLIWVVG", 3.37),
    ("PVVSMDLDPQPITAEEEGLIWVVG", 2.58),
    ("PVVSMDLDPQPITDEEEGLITVVG", 4.69),
    ("PVVSMTLDPQPITDEEEGLIWVVG", 3.25),
    ("PVVSMDLAPQPITDEEEGLIWVVG", 3.73),
    ("PVVSMDIDPQPITDEEEGLIWVVG", 3.94),
    ("PVVSCDLDPQPITDEEEGLIWVVG", 4.64),
    ("PVVSMDEDPQPITDEEEGLIWVVG", 4.89),
    ("PVVSMDPDPQPITDEEEGLIWVVG", 3.4),
]
